Recorded pKi, one value per entry.
molecular target: human D2 receptor (Homo sapiens (Human), UniProt P14416); assay: Radioligand binding assay, [3H]-spiperone, human D2 receptor; details: membranes of HEK293 EBNA cells expressing human D2; 0.7 nM [3H]-spiperone
Sequence (P14416 whole entry): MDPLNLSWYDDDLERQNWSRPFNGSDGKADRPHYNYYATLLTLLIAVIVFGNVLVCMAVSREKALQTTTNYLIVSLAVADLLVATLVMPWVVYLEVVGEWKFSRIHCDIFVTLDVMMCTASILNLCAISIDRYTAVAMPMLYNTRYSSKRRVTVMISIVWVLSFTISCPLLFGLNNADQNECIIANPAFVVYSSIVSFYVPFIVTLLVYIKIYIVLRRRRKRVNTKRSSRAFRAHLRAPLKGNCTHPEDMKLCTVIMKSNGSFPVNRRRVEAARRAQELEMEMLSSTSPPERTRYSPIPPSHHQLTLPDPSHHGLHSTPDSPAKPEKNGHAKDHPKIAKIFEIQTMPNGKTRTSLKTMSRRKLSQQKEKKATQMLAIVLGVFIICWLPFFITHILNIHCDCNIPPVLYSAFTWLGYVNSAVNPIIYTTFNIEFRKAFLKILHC
A value of pKi is the negative decimal logarithm of a concentration given in moles per litre.

Examples with answers:
> print(dat)
                                   compound  property.label  number
1  O=C(CC1COC1)N[C@H]1CC[C@H](CCN2CCN(c3nccc4c3CCO4)CC2)CC1 [Example 77]             pKi    6.12
2  C[C@]1(O)CC[C@H](C(=O)N[C@H]2CC[C@H](CCN3CCN(c4nccc5c4CCO5)CC3)CC2)CC1 [Example 54]             pKi    6.30
3  O=C(CC1CCOCC1)N[C@H]1CC[C@H](CCN2CCN(c3nccc4occc34)CC2)CC1 [Example 10]             pKi    6.17
4  CS(=O)(=O)N[C@H]1CC[C@H](CCN2CCN(c3nccc4occc34)CC2)CC1 [Example 14]             pKi    6.06
5  CC(C)CCC(=O)N[C@H]1CC[C@H](CCN2CCN(c3nccc4c3CCO4)CC2)CC1 [Example 93]             pKi    5.89

I have this compound here, O=C(CC1C[C@H](O)CO1)N[C@H]1CC[C@H](CCN2CCN(c3nccc4c3CCO4)CC2)CC1 (stereo in doubt) [Example 91] , and I need its recorded pKi. 6.03

Again, but for O=C(CC1CC1)N[C@H]1CC[C@H](CCN2CCN(c3nccc4c3CCO4)CC2)CC1 [Example 51] 6.23

Again, but for CC(C)(C)c1ccc(C(=O)N[C@H]2CC[C@H](CCN3CCN(c4nccc5c4CCO5)CC3)CC2)cc1 [Example 131] 5.78

Again, but for O=CN[C@H]1CC[C@H](CCN2CCN(c3nccc4c3CCO4)CC2)CC1 [Example 83] 6.08

Again, but for O=C(CO)N[C@H]1CC[C@H](CCN2CCN(c3nccc4occc34)CC2)CC1 [Example 7] 5.87

Again, but for CC(C)=CC(=O)N[C@H]1CC[C@H](CCN2CCN(c3nccc4c3CCO4)CC2)CC1 [Example 80] 6.70

Again, but for O=C(N[C@H]1CC[C@H](CCN2CCN(c3nccc4c3CCO4)CC2)CC1)c1ccc(N2CCOCC2)nc1 [Example 119] 6.00

Again, but for O=C(CC(F)(F)F)N[C@H]1CC[C@H](CCN2CCN(c3nccc4c3CCO4)CC2)CC1 [Example 60] 6.16

Again, but for O=C(N[C@H]1CC[C@H](CCN2CCN(c3nccc4occc34)CC2)CC1)C1CC1 [Example 13] 6.58

Again, but for CC(C)(C)C(=O)N[C@H]1CC[C@H](CCN2CCN(c3nccc4c3CCO4)CC2)CC1 [Example 70] 6.28

Again, but for CO[C@H]1CC[C@H](CC(=O)N[C@H]2CC[C@H](CCN3CCN(c4nccc5sccc45)CC3)CC2)C1 [Example 26] 6.61

Again, but for O=C(N[C@H]1CC[C@H](CCN2CCN(c3nccc4c3CCO4)CC2)CC1)c1ccc(N2CCS(=O)(=O)CC2)cc1 [Example 125] 6.93

Again, but for O=C(CC1CCOCC1)N[C@H]1CC[C@H](CCN2CCN(c3nccc4c3CCO4)CC2)CC1 [Example 34] 6.06

Again, but for CCC(C)C(=O)N[C@H]1CC[C@H](CCN2CCN(c3nccc4c3CCO4)CC2)CC1 (mixture of isomers) [Example 76] 6.15

Again, but for O=C(CCC(F)(F)F)N[C@H]1CC[C@H](CCN2CCN(c3nccc4c3CCO4)CC2)CC1 [Example 95] 5.90

----------
target: human D3 receptor (Homo sapiens (Human), UniProt P35462)
Sequence (P35462 whole entry): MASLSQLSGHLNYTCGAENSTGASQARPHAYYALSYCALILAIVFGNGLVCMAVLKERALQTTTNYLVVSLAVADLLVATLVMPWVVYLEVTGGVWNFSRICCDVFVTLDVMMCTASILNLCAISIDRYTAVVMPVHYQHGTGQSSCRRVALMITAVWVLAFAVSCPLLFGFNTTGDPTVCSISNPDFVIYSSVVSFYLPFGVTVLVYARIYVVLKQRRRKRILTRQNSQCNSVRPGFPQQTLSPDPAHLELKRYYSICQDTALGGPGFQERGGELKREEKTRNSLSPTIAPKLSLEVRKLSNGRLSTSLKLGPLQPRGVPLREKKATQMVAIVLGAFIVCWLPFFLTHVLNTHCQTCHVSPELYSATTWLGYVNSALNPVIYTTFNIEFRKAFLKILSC
Recorded Ki, one value per entry.
Supply the numeric figure in nM, leaving out any unit text.

Examples with answers:
> print(dat)
                        structure.as.smiles  property.label  unit.info  number
1  CS(=O)(=O)CC(=O)N[C@H]1CC[C@H](CCN2CCN(c3nccc4c3CCO4)CC2)CC1              Ki         nM     9.8
2  O=C(N[C@H]1CC[C@H](CCN2CCN(c3nccc4c3CCO4)CC2)CC1)c1ccc(Cl)cc1              Ki         nM    13.2
3  C/C=C/CC(=O)N[C@H]1CC[C@H](CCN2CCN(c3nccc4c3CCO4)CC2)CC1              Ki         nM    12.9
4  CC(=O)N[C@H]1CC[C@H](CCN2CCN(c3nc(C)cc4c3CCO4)CC2)CC1              Ki         nM    7.58

I have this compound here, O=C(CO)N[C@H]1CC[C@H](CCN2CCN(c3nccc4c3CCO4)CC2)CC1 , and I need its recorded Ki. 15.9

Again, but for Cc1cc2occc2c(N2CCN(CC[C@H]3CC[C@H](NC(=O)CC4CCOCC4)CC3)CC2)n1 9.45

Again, but for CC(C)CC(=O)N[C@H]1CC[C@H](CCN2CCN(c3nccc4c3CCO4)CC2)CC1 10.9

Again, but for O=C(Cc1noc2ccccc12)N[C@H]1CC[C@H](CCN2CCN(c3nccc4c3CCO4)CC2)CC1 14.9

Again, but for O=C(C[C@H]1CC[C@H](O)CC1)N[C@H]1CC[C@H](CCN2CCN(c3nccc4sccc34)CC2)CC1 6
